Target: ATP-dependent translocase ABCB1 (Homo sapiens)
Experiment: Inhibition of P-glycoprotein expressed in MDR CCRF vcr1000 cells by daunorubicin efflux assay
pEC50: −log10 of the molar value.
measurement_name: pEC50

compound: CCN(CC)CC(O)COc1ccccc1C(=O)CCc1ccccc1 (stereo not drawn)
pEC50: 6.04

A. Cc1ccccc1N1CCN(CC(O)COc2ccccc2C(=O)CCc2ccc(Cl)cc2)CC1 (stereo not drawn)
B. Cc1cc(C)n(-c2nnc(N/N=C\c3cccnc3)nn2)n1
Query: Which record shows the lower pEC50: the first, A , or the second, B ? Select an item and report its label.
Response: B

* * *

Molecular target: ATP-dependent translocase ABCB1 (Homo sapiens, UniProt P08183)
Sequence (P08183 whole entry): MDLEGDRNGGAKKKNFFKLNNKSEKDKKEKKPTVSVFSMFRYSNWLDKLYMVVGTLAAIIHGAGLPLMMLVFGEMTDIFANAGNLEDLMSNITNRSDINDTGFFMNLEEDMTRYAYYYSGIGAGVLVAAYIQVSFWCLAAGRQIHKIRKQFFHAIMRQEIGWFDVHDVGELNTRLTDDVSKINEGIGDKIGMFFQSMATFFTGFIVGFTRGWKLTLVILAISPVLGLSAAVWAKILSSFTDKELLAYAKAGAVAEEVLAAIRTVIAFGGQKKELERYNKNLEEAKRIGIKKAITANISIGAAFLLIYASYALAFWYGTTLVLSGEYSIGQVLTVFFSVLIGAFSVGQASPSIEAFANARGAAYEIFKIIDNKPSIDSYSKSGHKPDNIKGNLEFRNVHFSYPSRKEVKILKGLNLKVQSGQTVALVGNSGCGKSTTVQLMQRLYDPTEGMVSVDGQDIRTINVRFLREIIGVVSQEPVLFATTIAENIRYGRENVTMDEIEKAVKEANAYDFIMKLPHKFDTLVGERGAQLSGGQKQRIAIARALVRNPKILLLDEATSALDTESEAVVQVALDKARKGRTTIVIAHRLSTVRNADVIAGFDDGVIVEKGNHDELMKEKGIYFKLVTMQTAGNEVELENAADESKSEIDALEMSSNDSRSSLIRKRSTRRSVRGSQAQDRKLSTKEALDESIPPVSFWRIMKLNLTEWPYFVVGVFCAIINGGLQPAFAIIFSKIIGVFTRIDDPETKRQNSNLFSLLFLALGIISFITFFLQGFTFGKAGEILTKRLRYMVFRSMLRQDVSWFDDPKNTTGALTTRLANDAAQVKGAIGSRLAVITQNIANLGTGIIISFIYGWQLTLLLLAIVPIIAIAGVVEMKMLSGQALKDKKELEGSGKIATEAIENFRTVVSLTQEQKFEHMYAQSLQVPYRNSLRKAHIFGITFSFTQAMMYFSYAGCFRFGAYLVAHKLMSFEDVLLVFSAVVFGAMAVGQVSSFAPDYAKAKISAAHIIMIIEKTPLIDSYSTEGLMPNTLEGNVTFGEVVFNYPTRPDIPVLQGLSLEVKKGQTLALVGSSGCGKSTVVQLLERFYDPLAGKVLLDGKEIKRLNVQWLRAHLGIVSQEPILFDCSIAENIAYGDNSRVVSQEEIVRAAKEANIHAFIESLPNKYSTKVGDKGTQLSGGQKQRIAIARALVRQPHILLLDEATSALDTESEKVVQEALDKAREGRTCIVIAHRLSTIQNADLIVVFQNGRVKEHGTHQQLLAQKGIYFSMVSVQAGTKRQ
Experiment: Inhibition of P-glycoprotein expressed in MDR CCRF vcr1000 cells by daunorubicin efflux assay
pEC50: −log10 of the molar value.
measurement_name: pEC50

1. O=C(CCc1ccccc1)c1ccccc1OCCCN1CCCCC1
2. CCC(=O)c1ccccc1OCC(O)CN1CCCCC1 (stereo not drawn)
3. COc1ccc(OCC(O)CN2CCN(c3ccccc3C)CC2)c(C(=O)CCc2ccccc2)c1 (stereo not drawn)
Query: Ascending sort, pEC50. Order the labels as requested and list them.
Response: 2, 1, 3

Where these numbers come from: ChEMBL document CHEMBL1142990
